- Tgt: feline FcRn complex (FcRn-α subunit and β-microglobulin), biotin labeled (feline)
- Experimental Details: SPR, pH 6
Measure: pKd
Quick note: pKd means taking -log10 of the concentration in moles per liter.

Completed entries (count: 6):
Binder	Recorded Measurement
feline IgG1a S252Y (antibody, part only; not given: Variable domains, not shown: another chain or arm of the molecule) constant: ASTTAPSVFPLAPSCGTTSGATVALACLVLGYFPEPVTVSWNSGALTSGVHTFPAVLQASGLYSLSSMVTVPSSRWLSDTFTCNVAHPPSNTKVDKTVRKTDHPPGPKPCDCPKCPPPEMLGGPSIFIFPPKPKDTLYISRTPEVTCLVVDLGPDDSDVQITWFVDNTQVYTAKTSPREEQFNSTYRVVSVLPILHQDWLKGKEFKCKVNSKSLPSPIERTISKAKGQPHEPQVYVLPPAQEELSRNKVSVTCLIKSFHPPDIAVEWEITGQPEPENNYRTTPPQLDSDGTYFVYSKLSVDRSHWQRGNTYTCSVSHEALHSHHTQKSLTQSPGK	6.05
feline IgG1a S252Y/D312P (antibody, part only; not given: Variable domains, not shown: another chain or arm of the molecule; small tags and cut ends) constant: ASTTAPSVFPLAPSCGTTSGATVALACLVLGYFPEPVTVSWNSGALTSGVHTFPAVLQASGLYSLSSMVTVPSSRWLSDTFTCNVAHPPSNTKVDKTVRKTDHPPGPKPCDCPKCPPPEMLGGPSIFIFPPKPKDTLYISRTPEVTCLVVDLGPDDSDVQITWFVDNTQVYTAKTSPREEQFNSTYRVVSVLPILHQPWLKGKEFKCKVNSKSLPSPIERTISKAKGQPHEPQVYVLPPAQEELSRNKVSVTCLIKSFHPPDIAVEWEITGQPEPENNYRTTPPQLDSDGTYFVYSKLSVDRSHWQRGNTYTCSVSHEALHSHHTQKSLTQSPGK	7.98
feline IgG1a D249A (antibody, part only; not given: Variable domains, not shown: another chain or arm of the molecule) constant: ASTTAPSVFPLAPSCGTTSGATVALACLVLGYFPEPVTVSWNSGALTSGVHTFPAVLQASGLYSLSSMVTVPSSRWLSDTFTCNVAHPPSNTKVDKTVRKTDHPPGPKPCDCPKCPPPEMLGGPSIFIFPPKPKATLSISRTPEVTCLVVDLGPDDSDVQITWFVDNTQVYTAKTSPREEQFNSTYRVVSVLPILHQDWLKGKEFKCKVNSKSLPSPIERTISKAKGQPHEPQVYVLPPAQEELSRNKVSVTCLIKSFHPPDIAVEWEITGQPEPENNYRTTPPQLDSDGTYFVYSKLSVDRSHWQRGNTYTCSVSHEALHSHHTQKSLTQSPGK	8.27
feline IgG1a S428Y/Q311W (antibody, part only; not given: Variable domains, not shown: another chain or arm of the molecule) constant: ASTTAPSVFPLAPSCGTTSGATVALACLVLGYFPEPVTVSWNSGALTSGVHTFPAVLQASGLYSLSSMVTVPSSRWLSDTFTCNVAHPPSNTKVDKTVRKTDHPPGPKPCDCPKCPPPEMLGGPSIFIFPPKPKDTLSISRTPEVTCLVVDLGPDDSDVQITWFVDNTQVYTAKTSPREEQFNSTYRVVSVLPILHWDWLKGKEFKCKVNSKSLPSPIERTISKAKGQPHEPQVYVLPPAQEELSRNKVSVTCLIKSFHPPDIAVEWEITGQPEPENNYRTTPPQLDSDGTYFVYSKLSVDRSHWQRGNTYTCSVYHEALHSHHTQKSLTQSPGK	7.90
feline IgG1a S252Y/S428Y (antibody, part only; not given: Variable domains, not shown: another chain or arm of the molecule) constant: ASTTAPSVFPLAPSCGTTSGATVALACLVLGYFPEPVTVSWNSGALTSGVHTFPAVLQASGLYSLSSMVTVPSSRWLSDTFTCNVAHPPSNTKVDKTVRKTDHPPGPKPCDCPKCPPPEMLGGPSIFIFPPKPKDTLYISRTPEVTCLVVDLGPDDSDVQITWFVDNTQVYTAKTSPREEQFNSTYRVVSVLPILHQDWLKGKEFKCKVNSKSLPSPIERTISKAKGQPHEPQVYVLPPAQEELSRNKVSVTCLIKSFHPPDIAVEWEITGQPEPENNYRTTPPQLDSDGTYFVYSKLSVDRSHWQRGNTYTCSVYHEALHSHHTQKSLTQSPGK	7.76
feline IgG1a S252M/S428M (antibody, part only; not given: Variable domains, not shown: another chain or arm of the molecule) constant: ASTTAPSVFPLAPSCGTTSGATVALACLVLGYFPEPVTVSWNSGALTSGVHTFPAVLQASGLYSLSSMVTVPSSRWLSDTFTCNVAHPPSNTKVDKTVRKTDHPPGPKPCDCPKCPPPEMLGGPSIFIFPPKPKDTLMISRTPEVTCLVVDLGPDDSDVQITWFVDNTQVYTAKTSPREEQFNSTYRVVSVLPILHQDWLKGKEFKCKVNSKSLPSPIERTISKAKGQPHEPQVYVLPPAQEELSRNKVSVTCLIKSFHPPDIAVEWEITGQPEPENNYRTTPPQLDSDGTYFVYSKLSVDRSHWQRGNTYTCSVMHEALHSHHTQKSLTQSPGK	8.14

Which pKd reading was recorded for the binder feline IgG1a S254I (antibody, part only; not given: Variable domains, not shown: another chain or arm of the molecule) constant: ASTTAPSVFPLAPSCGTTSGATVALACLVLGYFPEPVTVSWNSGALTSGVHTFPAVLQASGLYSLSSMVTVPSSRWLSDTFTCNVAHPPSNTKVDKTVRKTDHPPGPKPCDCPKCPPPEMLGGPSIFIFPPKPKDTLSIIRTPEVTCLVVDLGPDDSDVQITWFVDNTQVYTAKTSPREEQFNSTYRVVSVLPILHQDWLKGKEFKCKVNSKSLPSPIERTISKAKGQPHEPQVYVLPPAQEELSRNKVSVTCLIKSFHPPDIAVEWEITGQPEPENNYRTTPPQLDSDGTYFVYSKLSVDRSHWQRGNTYTCSVSHEALHSHHTQKSLTQSPGK ?
7.91

# iterate: feline IgG1a S434L (antibody, part only; not given: Variable domains, not shown: another chain or arm of the molecule) constant: ASTTAPSVFPLAPSCGTTSGATVALACLVLGYFPEPVTVSWNSGALTSGVHTFPAVLQASGLYSLSSMVTVPSSRWLSDTFTCNVAHPPSNTKVDKTVRKTDHPPGPKPCDCPKCPPPEMLGGPSIFIFPPKPKDTLSISRTPEVTCLVVDLGPDDSDVQITWFVDNTQVYTAKTSPREEQFNSTYRVVSVLPILHQDWLKGKEFKCKVNSKSLPSPIERTISKAKGQPHEPQVYVLPPAQEELSRNKVSVTCLIKSFHPPDIAVEWEITGQPEPENNYRTTPPQLDSDGTYFVYSKLSVDRSHWQRGNTYTCSVSHEALHLHHTQKSLTQSPGK
8.06
